System: P388 leukemia ip, CD2F1 mice, survival T/C
Test: NCI In Vivo Anticancer Drug Screen. Data for tumor model P388 Leukemia (intraperitoneal) in CD2F1 (CDF1) mice
Details: endpoint: median survival time; dose: 400.0 mg/kg/injection; schedule: Q01DX001 (ip); vehicle: saline; higher = longer survival
Toxic doses and inconclusive results are not listed.
property_name: T/C

>>> obs_value("CCOC(=O)N(C)C(=O)CN(C=O)c1ncc([N+](=O)[O-])s1")
"100 % of control"
>>> obs_value("Nc1snnc1C(=S)NC=S")
"100 % of control"
>>> obs_value("Cc1onc(-c2ccccc2)c1C")
"105 % of control"

Proceed to the following item.
Given the compound O=c1[nH]nc(/C=C/C=C/c2ccccc2)c(=O)[nH]1 and test system P388 leukemia ip, CD2F1 mice, survival T/C, the measured T/C is 90 % of control

* * *

Tested on: P388 leukemia ip, CD2F1 mice, survival T/C
Assay: NCI In Vivo Anticancer Drug Screen. Data for tumor model P388 Leukemia (intraperitoneal) in CD2F1 (CDF1) mice
Settings: endpoint: median survival time; dose: 12.5 mg/kg/injection; schedule: Q01DX009 (ip); vehicle: distilled water + Tween-80
Inconclusive results and toxic doses are left out. The calls were made as follows: active = survival T/C of 150% or more; inactive = T/C below 125% in these data.
Please answer using one outcome listed in active, inactive

Some solved entries appear below for comparison.
>>> class_name("CCOC(=O)/C(C#N)=C/Nc1cc(C(=O)OCC)cc2c(OC)c(OC)ccc12")
"inactive"
>>> class_name("CCc1nc(N)nc(N)c1-c1ccc(Cl)c(N=[N+]=[N-])c1")
"inactive"
>>> class_name("O=C(Nc1ccc([N+](=O)[O-])cc1)Nc1nncs1")
"inactive"
>>> class_name("O=C(NC1CCC1)OCc1c(COC(=O)NC2CCC2)c(-c2ccc(Cl)c(Cl)c2)n2c1CCC2")
"active"

// switching to the query compound
Kindly provide the recorded test outcome for the following compound: O=C(Nc1ccccc1)c1csc(-c2csc(CCNC(=O)C(F)(F)F)n2)n1 inactive

* * *

Test system: P388 leukemia ip, CD2F1 mice, survival T/C
Assay: NCI In Vivo Anticancer Drug Screen. Data for tumor model P388 Leukemia (intraperitoneal) in CD2F1 (CDF1) mice
Details: endpoint: median survival time; dose: 200.0 mg/kg/injection; schedule: Q04DX002 (ip); vehicle: saline with Tween-80; higher = longer survival
Inconclusive results and toxic doses are left out.
T/C values for the molecules below.

Field T/C (entry CCOC(=O)C1(Br)CC2(C1)CC(Br)(C(=O)OCC)C2 (centres undefined) ) reads 103 % of control

* * *

System: P388 leukemia ip, CD2F1 mice, survival T/C
Experiment: NCI In Vivo Anticancer Drug Screen. Data for tumor model P388 Leukemia (intraperitoneal) in CD2F1 (CDF1) mice
Conditions: endpoint: median survival time; dose: 50.0 mg/kg/injection; schedule: Q01DX009 (ip); vehicle: saline
Toxic doses and inconclusive results are not listed. The calls were made as follows: active = survival T/C of 150% or more; inactive = T/C below 125% in these data.
Please answer using one outcome listed in YES = active, NO = inactive

>>> class_name("COC1=C(N)C(=O)c2nc(-c3ccccc3N)ccc2C1=O")
"NO"

Kindly provide the recorded test outcome for the following molecule: C=CCN(C#N)CC=C NO

Kindly provide the recorded test outcome for the following molecule: Cc1cc2nc(Nc3nc(C)c(C)c(=O)[nH]3)[nH]c2cc1C NO

Kindly provide the recorded test outcome for the following molecule: O=C(Oc1ccc[nH]c1=O)C12CC3CC(CC(C3)C1)C2 NO

Kindly provide the recorded test outcome for the following molecule: CCCC(OC)=C(C(=O)OCC)C(=O)OCC NO

Kindly provide the recorded test outcome for the following molecule: COc1cc(/C=C/C(=O)N2CCN(CC(=O)N3CCCC3)CC2)cc(OC)c1OC NO
